# Tested target: BIR3 domain of human cIAP-1 (residues 267-363) (Homo sapiens (Human))
# Sequence (Q13490 267-363): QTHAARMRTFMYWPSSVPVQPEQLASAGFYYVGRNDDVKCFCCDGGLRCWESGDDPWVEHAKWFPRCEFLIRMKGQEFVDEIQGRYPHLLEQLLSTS
# Test method notes: cIAP-1 in vitro competitive displacement binding assay (fluorescence polarization; Probe A AVPIK(5&6FAM)-amide or Probe B AbuRPFK(5&6FAM)-amide)
# Assay setup: 3 h, read-out: IC50 or PI cIAP1: PI
Structures can show the parent of a compound that is named as a salt.
Measure name: inhibition at […] (%)
Provide the reading as a plain figure in %.

Please give the measured inhibition at […] for this molecule: C[C@@H]1CN(CC(=O)N2CC(C)(C)c3cnc(Cc4ccccc4)cc32)[C@@H](CN2CCCC2=O)CN1 [Example 172, dihydrochloride]
78

Dear colleague, I am looking for the recorded inhibition at […] of the following molecule: C[C@@H]1CN(CC(=O)N2CC(C)(C)c3cnc(C(F)(F)c4ccccc4)cc32)[C@@H](CN2CC[C@@H](F)C2)CN1 [Example 213, dihydrochloride]
82

Return reported inhibition at […]; argument: C[C@@H]1CN(CC(=O)N2CC(C)(C)c3cnc(C(F)(F)c4ccccc4)cc32)[C@@H](CN2C(=O)CCC2=O)CN1 [Example 218, dihydrochloride]
78
